- measurement notes: soluble on expression in E. coli; label from the status in PepcDB or PDB records
reported property: soluble on expression in E. coli

• MNTRNFSLPQLQNLPIEEARIVADALAVHATSRQIDSAASKLAALAEAGLKGDRQAYAAYQQLLYVLSLSDDVATAQTRRWLARAIYRVEERFMPAADLSRALSEEDFQKRLEQEIAAQSRERHPMSQYVFSGSASRAQLQVFLRHQWFRTFRLYRDAADLLVNLTDVDEAAALARYLYGELGEEDEKGSHPRLLAKLLEAIGLEADFQAVSTMPEEIAYLNNRARAFRHAEVGWGLAVFYITELVVPGNHEKLYRALLQAGLSEDQAEYYKVHISLVPPRAKREWQLIARRIPDVQFQNAFLTSLSQHFRVERAYYDAIWEEMQSVK = soluble
• MDMNSFSPMMPTSPLSMINQIKFEDEPDLKDLFITVDEPESHVTTIETFITYRIITKTTRGEFDSSEFEVRRRYQDFLWLKGKLEEAHPTLIIPPLPEKFIVKGMVERFNDDFIETRRKALHKFLNRIADHPTLTFNEDFKIFLTAQAWELSSHKKQGPGLLSRMGQTVRAVASSMRGVKNRPEEFMEMNNFIELFSQRINLIDKISQRIYKEEREYFDEMKEYGPIHILWSASEEDLVDTLKDVASCIDRCCKATEKRMSGLSEALLPVVHEYVLYSEMLMGVMKRRDQIQAELDSKVEVLTYKKADTDLLPEEIGKLEDKVECANNALKADWERWKQNMQNDIKLAFTDMAEENIHYYEQCLATWESFLTSQTNLHLEEASEDKP = soluble
• YDRRVHRFRKNWERIIPTHSKIQYAGNMGLLSFGTGWDYGKRNQWETDLLLGFIPKYSSKKAKVTMTLKQNYMPWSINLGKGFSTEPLSCGLYLNTVFGNQFWVSEPERYPKGYYGFSSKVRIHVFMGQRLTYDIDPNRRFLAKSVTFFYEISTCDLYLISGVTNSYLRPRDYLSLSFGLKFQWL = not soluble
• MPSSVELSVQAGLEHFDAAQWDALAGPQPFVRHAFLRALHDTGCASPGTGWTPCFLALRRAGLLAGAVPLYAKSHSRGEYVFDYAWADAYARNGLPYYPKLLSAVPFTPVGGARLLAHTHADRLLLARGLIQLARQFEVSSLHVLFPSDDDLLALREAGYLIRAGVQFHWRNAGYAGFDDFLAAFSHDKRKKIRQDRKKVAAERVSFRWLRGADIDAAALDFFYQCYRHTYLAHGNPPYLNLEFFRQLHAEMPDALVLILAEQDGQPVAAALNLQADGVLYGRYWGARRYIPGLHFETCYLQSIEYCIAHGQASFEGGAQGEHKMARGLLPTPTWSAHWIADTRFAAAIDDFLGHETHAIDEYRDELATHSPFRKT = not soluble

Working through the 5 sequences below one at a time, give soluble on expression in E. coli for each.
1. MAHHHHHHMLQRSLARLCAAAQRQGNKALAAEGRSFALVNREVTAIKEHIQSLVTNTNNEVLDHAGKYVLAAGGKLMRPALVVLMAHAMLPLDVSAHLLEEPIGSLDEVTPGTILPFLRLAEVTELIHTASLLHDDVIDNTDTRRGRPALHKVYDAKRAVLAGDYMLARASFYIATLQVPRIVILMTTALEELTSGELMQMDGCFDIPRYEQKSFCKTASLIANSLASTAVLAGPGNEALEQTAFDFGKHLGIAFQILDDCLDITGDEKMLGKPKLVDMKEGIATIPVLLVARRNAKVAEMVCRRFAEPGDAEFCLEAVEKEGAVAEAMHRADEHCRLGLESLHKLHHSPARDALESALSMVMNRKS
2. MSLFTGPIVAVGEYVEGLGEGRRYVSIPYYRREIERVIGARPFPGTFNVRVEREERESLRELASSYGYRIEPHGEYGGAWLYPCLVNGRPAWLVFPDLTEHRDQVELISETELRRELNVIHGDMVKIEVWGPSTWKLARRLTCGPSGGREGHHHHHH
3. MGSDKIHHHHHHMPTSALDGKDTAAIQAATAEVAVYDRSNWGLIRVSDDDRLRFLHNQSTNDFQSLKPGQGCETVMVTSTARTIDLVSSYVLNDAVILLVSSSRREFLLQWLDRYIFFADKVQLTDITDETATLSIIGPGSDAVVEKLGAGEIIGQPHGNHITIDGGVVAAVGSGLASPGYTLILPVSQKQQVWQQILDSGAVELSDRAWDTLRILQGRPAPDAELTDDYNPLEVGLWQTISFSKGCYIGQETIARLNTYKGVKQHLWGIRLNAPAEIGDSINIGDEKVGKLTSYTETPDGYFGLAYIRSKAGGVGLKVQVGNSEGEVVAIPFVSHEYP
4. MGSDKIHHHHHHMMKLIPRSSDISPGIDGICPGPFPPNGFTVLTDAAYGNGDCFGLYWPIGQEHKLPIVCETYHDEWRIVPAFSSIKKFEEWLEVNDDDPHENGISIEDQDFAANLFRVARKCLSTGRLDDALPLLQRATEQLPEVSEYWLALAIQYRRCKKTEAAAQAALNAYLGNWAFGVPDNKVIHLLSQAADVPNFQDDPVIQCIKEQGLDLSFGGTKENNNYPLMQMCVDTYFAQRKPLQALTLLHNYAWIMSSETTAFQERYDFNIDEWRAKFRQLCLEYFGDSRTQFT
5. MLESMTGYGSAERSEKGMKVLVELRSVNNRFAEIGVKLPRQLLSWELEVRELIRASFQRGKISAFVQLQLEEAEALPVTVNPSKVRGYKALLETVRREAEIEAPVTLDHVLRFSEIFEPDHTILEHPDEIWPIAQSALIEAIGNLKEMRRKEGEELAIDFLSRIDEIERTLKEIKEIAAGNLETIRKRLASKISAIAGCDVEYSKDRLEMEIVMAAERLDITEECIRFSSHNKFFIEELNNSSSGSGRKLNFLLQEQLREANTIASKSQNADISQKVVHIKEELEKVREQLQNIE

["not soluble", "soluble", "not soluble", "not soluble", "soluble"]

Look up soluble on expression in E. coli for this sequence: MVINIRRSRPDEGDKLTAIWCRSVDATHDFLTKAYRKELEEMVRAFLPEAPLWVAVSTEDQPIAFMLLTGDHMDALFVDPDVRGCGVGKLLIEHALSLTPKLTTNVNEQNEQAVGFYQKMGFRVTGRSETDDLGQPYPLLNLMYEQQAEADYD not soluble

Where do these numbers come from? They come from the DeepSol protein solubility set.
